Reference source for all entries: the supplement of paper PMC4862054

# Tested on: HDQ-P1
# experimental_setup: 72 h
Form field: EC50, CellTiter-Glo (one value per entry).
Reply numerically in nM, unit not repeated.

Answered cases to consult:
Report EC50, CellTiter-Glo for CCNC(=O)c1noc(-c2cc(C(C)C)c(O)cc2O)c1-c1ccc(CN2CCOCC2)cc1 [NVP-AUY922] tested on HDQ-P1.
14.1

Given the entry CO[C@@H]1[C@H](N(C)C(=O)c2ccccc2)C[C@H]2O[C@]1(C)n1c3ccccc3c3c4c(c5c6ccccc6n2c5c31)C(=O)NC4 [Midostaurin] , what EC50, CellTiter-Glo was observed with HDQ-P1?
465

Hello, I am looking for reported EC50, CellTiter-Glo with HDQ-P1 for CC(=O)[C@]1(O)Cc2c(O)c3c(c(O)c2[C@@H](O[C@H]2C[C@H](N)[C@H](O)[C@H](C)O2)C1)C(=O)c1ccccc1C3=O [Idarubicin] . Could you help?
837

// fetch HDQ-P1 EC50, CellTiter-Glo for COc1cc(Nc2c(C#N)cnc3cc(OCCCN4CCN(C)CC4)c(OC)cc23)c(Cl)cc1Cl [Bosutinib]
972

Now, please, on to the next compound.
API: value(readout= EC50, CellTiter-Glo, system= HDQ-P1, query= O=C(CCCCCCC(=O)Nc1ccccc1)NO [Vorinostat] )
8320
